The following compounds are shown together with reported pEC50 values.
target: VCB: PROTAC: SMARCA2^BD ternary complex (Homo sapiens, UniProt P40337+P51531); test: TR-FRET ternary complex affinity and cooperativity, SMARCA2; type: binding; design: P51531-2, residues 1373-1493 with additional N-terminal SM residues; GST (TEV site) (N); His6 (TEV site) (N, cleaved yes); made in house; host or cells: SMARCA2^BD: Escherichia coli BL21(DE3); conditions: TR-FRET competition for SMARCA2BD, + VCB; mean ± SD; read-out: TR-FRET Ternary SMARCA2BD EC50 (PROTAC + VCB)
pEC50: −log10 of the molar value.
measurement_label: pEC50

compound	measurement_label	number
Cc1ncsc1-c1ccc([C@H](CCCCN2CCC(c3ccc4c(c3)n(C3CCCC3)c3nc(=O)c5c(Br)cccc5n43)CC2)NC(=O)[C@@H]2C[C@@H](O)CN2C(=O)[C@@H](NC(=O)C2(F)CC2)C(C)(C)C)cc1 [compound 25]	pEC50	7.37
Cc1ncsc1-c1ccc(CNC(=O)[C@@H]2C[C@@H](O)CN2C(=O)[C@@H](NC(=O)C2(F)CC2)C(C)(C)C)c(OCCCCN2CCC(c3ccc4c(c3)n(C3CCCC3)c3nc(=O)c5c(Br)cccc5n43)CC2)c1 [compound 23]	pEC50	6.79
Cc1ncsc1-c1ccc([C@H](COC(C)CN2CCC(c3ccc4c(c3)n(C3CCCC3)c3nc(=O)c5c(Br)cccc5n43)CC2)NC(=O)[C@@H]2C[C@@H](O)CN2C(=O)[C@@H](NC(=O)C2(N(C)C)CC2)C(C)(C)C)cc1 (some centres unmarked) [compound 10]	pEC50	7.82
Nc1cccc2c1c(=O)nc1n(C3CCCC3)c3ccccc3n21 [compound 2]	pEC50	5.71
Cc1ncsc1-c1ccc([C@H](CC[C@H](C)CCN2CCC(c3ccc4c(c3)n(C3CCCC3)c3nc(=O)c5c(Br)cccc5n43)CC2)NC(=O)[C@@H]2C[C@H](O)CN2C(=O)[C@@H](NC(=O)C2(F)CC2)C(C)(C)C)cc1 [compound 12]	pEC50	6.74

* * *

assay: Pharmacokinetic analyses in mouse; type: in vivo; conditions: NMRI, mouse, plasma, po, 80 mg/kg, NMRI mice, p.o., 80 mg/kg, Xenograft study; read-out: AUC0-24h

molecule	AUC(0-t) / µM·h
Cc1ncsc1-c1ccc(C(CCC(C)CCN2CCC(c3ccc4c(c3)n(C3CCCC3)c3nc(=O)c5c(Br)cccc5n43)CC2)NC(=O)C2CC(O)CN2C(=O)C(NC(=O)C2(F)CC2)C(C)(C)C)cc1 (stereo not shown) [ACBI2]	84

* * *

biological target: VCB: PROTAC: SMARCA4^BD ternary complex (Homo sapiens, UniProt P40337+P51532); assay: SPR ternary complex measurement, VCB immobilised, 10 µM SMARCA4^BD present; type: binding; design: P51532, residues 1448–1569 with additional N-terminal SM residues; His6 (TEV site) (N, cleaved yes); GST (TEV site) (N, cleaved yes); made in house; host or cells: SMARCA4^BD: Escherichia coli BL21(DE3); details: cooperativity, SMARCA4; ratio of KD values measured in the same run
Sequence (P40337 54-213): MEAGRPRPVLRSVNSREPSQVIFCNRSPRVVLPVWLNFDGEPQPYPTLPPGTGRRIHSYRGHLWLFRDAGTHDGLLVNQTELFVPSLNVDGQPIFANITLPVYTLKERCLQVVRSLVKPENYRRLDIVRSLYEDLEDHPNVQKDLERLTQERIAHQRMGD
Sequence (Q15369 17-112 partner limits assumed): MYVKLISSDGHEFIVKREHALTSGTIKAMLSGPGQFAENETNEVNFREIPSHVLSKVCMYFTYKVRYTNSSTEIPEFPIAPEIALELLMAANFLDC
Sequence (Q15370 1-104 partner limits assumed): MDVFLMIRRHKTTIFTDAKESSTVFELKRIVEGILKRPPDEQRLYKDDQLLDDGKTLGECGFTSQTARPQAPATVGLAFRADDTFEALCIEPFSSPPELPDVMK
Sequence (P51532 1448-1569): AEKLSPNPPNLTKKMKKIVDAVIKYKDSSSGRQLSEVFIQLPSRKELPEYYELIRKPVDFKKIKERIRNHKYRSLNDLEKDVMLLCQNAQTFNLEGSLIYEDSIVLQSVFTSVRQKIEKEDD
measurement_label: alpha

molecule	measurement_label	result
Cc1ncsc1-c1ccc(CNC(=O)[C@@H]2C[C@@H](O)CN2C(=O)[C@@H](NC(=O)C2(F)CC2)C(C)(C)C)c(OCCN2CCC(c3ccc4c(c3)n(C3CCCC3)c3nc(=O)c5c(Br)cccc5n43)CC2)c1	alpha	0.1
Cc1ncsc1-c1ccc([C@H](COCCN2CCC(c3ccc4c(c3)n(C3CCCC3)c3nc(=O)c5c(Br)cccc5n43)CC2)NC(=O)[C@@H]2C[C@@H](O)CN2C(=O)[C@@H](NC(=O)C2(N(C)C)CC2)C(C)(C)C)cc1	alpha	0.7
Cc1ncsc1-c1ccc([C@H](COC(C)CN2CCC(c3ccc4c(c3)n(C3CCCC3)c3nc(=O)c5c(Br)cccc5n43)CC2)NC(=O)[C@@H]2C[C@@H](O)CN2C(=O)[C@@H](NC(=O)C2(F)CC2)C(C)(C)C)cc1 (stereo partly shown)	alpha	0.2
Cc1ncsc1-c1ccc(C(CCC(C)CCN2CCC(c3ccc4c(c3)n(C3CCCC3)c3nc(=O)c5c(Br)cccc5n43)CC2)NC(=O)C2CC(O)CN2C(=O)C(NC(=O)C2(F)CC2)C(C)(C)C)cc1 (stereo not shown)	alpha	1.4

* * *

experiment: Cell viability assay (CellTiter Glo) in a panel of cell lines; type: cell-based, human; details: human, SK-MEL-5 cells, SK-MEL-5; log10 conc -5.90309 mol/l

compound	result_units	viability at 1.25 µM
Cc1ncsc1-c1ccc(C(CCC(C)CCN2CCC(c3ccc4c(c3)n(C3CCCC3)c3nc(=O)c5c(Br)cccc5n43)CC2)NC(=O)C2CC(O)CN2C(=O)C(NC(=O)C2(F)CC2)C(C)(C)C)cc1 (stereo not shown)	%	1.81

* * *

assay: Cell viability assay (CellTiter Glo) in a panel of cell lines; type: cell-based, human; settings: Homo sapiens, LXFA 629L, LXFA_629L; values derived from curves in Extended Fig 4b; read-out: EC50 mean
measurement_label: EC50

compound	result
Cc1ncsc1-c1ccc(C(CCC(C)CCN2CCC(c3ccc4c(c3)n(C3CCCC3)c3nc(=O)c5c(Br)cccc5n43)CC2)NC(=O)C2CC(O)CN2C(=O)C(NC(=O)C2(F)CC2)C(C)(C)C)cc1 (stereo not shown)	16.5 nM

* * *

Items are presented alongside their recorded cooperativity α (SMARCA2BD).
system: VCB: PROTAC: SMARCA2^BD ternary complex; assay: TR-FRET ternary complex affinity and cooperativity, SMARCA2; assay type: binding, human; conditions: ratio TR-FRET EC50 / TR-FRET EC50 +VCB measured in the same run, SMARCA2BD

compound	cooperativity α (SMARCA2BD)
Cc1ncsc1-c1ccc([C@H](COC(C)CN2CCC(c3ccc4c(c3)n(C3CCCC3)c3nc(=O)c5c(Br)cccc5n43)CC2)NC(=O)[C@@H]2C[C@@H](O)CN2C(=O)[C@@H](NC(=O)C2(F)CC2)C(C)(C)C)cc1 (stereo partly shown) [compound 9]	7.0
Cc1ncsc1-c1ccc(CNC(=O)[C@@H]2C[C@H](O)CN2C(=O)[C@@H](NC(=O)C2(F)CC2)C(C)(C)C)c(OCCN2CCC(c3ccc4c(c3)n(C3CCCC3)c3nc(=O)c5c(Br)cccc5n43)CC2)c1 [compound 19]	1.2
Cc1ncsc1-c1ccc(CNC(=O)[C@@H]2C[C@@H](O)CN2C(=O)[C@@H](NC(=O)C2(F)CC2)C(C)(C)C)c(OCCCCN2CCC(c3ccc4c(c3)n(C3CCCC3)c3nc(=O)c5c(Br)cccc5n43)CC2)c1 [compound 23]	0.7
Cc1ncsc1-c1ccc([C@H](CC[C@@H](C)CCN2CCC(c3ccc4c(c3)n(C3CCCC3)c3nc(=O)c5c(Br)cccc5n43)CC2)NC(=O)[C@@H]2C[C@@H](O)CN2C(=O)[C@@H](NC(=O)C2(F)CC2)C(C)(C)C)cc1 [compound 29]	6.4

* * *

target: VCB: PROTAC: SMARCA2^BD ternary complex (Homo sapiens, UniProt P51531); construct: P51531-2, residues 1373-1493 with additional N-terminal SM residues; GST (TEV site) (N); His6 (TEV site) (N, cleaved yes); made in house; host or cells: SMARCA2^BD: Escherichia coli BL21(DE3); assay: TR-FRET ternary complex affinity and cooperativity, SMARCA2; type: binding; conditions: TR-FRET competition for SMARCA2BD, without VCB; mean ± SD; read-out: TR-FRET SMARCA2BD EC50
Sequence (P51531 with tags, fused parts or gaps isoform P51531-2): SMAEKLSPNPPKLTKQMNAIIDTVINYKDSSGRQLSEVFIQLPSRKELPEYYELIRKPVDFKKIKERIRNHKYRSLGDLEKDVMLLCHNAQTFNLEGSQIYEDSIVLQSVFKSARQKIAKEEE
// assign Satisfied if EC50 falls strictly below 0.1 µM, else Not satisfied (ties count as Not satisfied)

molecule	assigned_class
Cc1ncsc1-c1ccc([C@H](COC(C)(C)CN2CCC(c3ccc4c(c3)n(C3CCCC3)c3nc(=O)c5c(Br)cccc5n43)CC2)NC(=O)[C@@H]2C[C@@H](O)CN2C(=O)[C@@H](NC(=O)C2(F)CC2)C(C)(C)C)cc1	Not satisfied
Cc1ncsc1-c1ccc([C@H](COCCCN2CCC(c3ccc4c(c3)n(C3CCCC3)c3nc(=O)c5c(Br)cccc5n43)CC2)NC(=O)[C@@H]2C[C@@H](O)CN2C(=O)[C@@H](NC(=O)C2(F)CC2)C(C)(C)C)cc1	Satisfied
Cc1ncsc1-c1ccc(CNC(=O)[C@@H]2C[C@@H](O)CN2C(=O)[C@@H](NC(=O)C2(F)CC2)C(C)(C)C)c(OCCN2CCC(c3ccc4c(c3)n(C3CCCC3)c3nc(=O)c5c(Br)cccc5n43)CC2)c1	Satisfied
Cc1ncsc1-c1ccc(CNC(=O)[C@@H]2C[C@@H](O)CN2C(=O)[C@@H](NC(=O)C2(F)CC2)C(C)(C)C)c(OCCOCCOCCN2CCC(c3ccc4c(c3)n(C3CCCC3)c3nc(=O)c5c(Br)cccc5n43)CC2)c1	Not satisfied
Cc1ncsc1-c1ccc(C(CCC(C)CCN2CCC(c3ccc4c(c3)n(C3CCCC3)c3nc(=O)c5c(Br)cccc5n43)CC2)NC(=O)C2CC(O)CN2C(=O)C(NC(=O)C2(F)CC2)C(C)(C)C)cc1 (stereo not drawn)	Not satisfied
O=c1nc2n(C3CCCC3)c3ccccc3n2c2cccc(Br)c12	Not satisfied
Cc1ncsc1-c1ccc([C@H](COC(C)CN2CCC(c3ccc4c(c3)n(C3CCCC3)c3nc(=O)c5c(Br)cccc5n43)CC2)NC(=O)[C@@H]2C[C@@H](O)CN2C(=O)[C@@H](NC(=O)C2(F)CC2)C(C)(C)C)cc1 (stereo partly drawn)	Not satisfied
Cc1ncsc1-c1ccc([C@H](CCCCCN2CCC(c3ccc4c(c3)n(C3CCCC3)c3nc(=O)c5c(Br)cccc5n43)CC2)NC(=O)[C@@H]2C[C@@H](O)CN2C(=O)[C@@H](NC(=O)C2(F)CC2)C(C)(C)C)cc1	Not satisfied
Cc1ncsc1-c1ccc([C@H](COCCN2CCC(c3ccc4c(c3)n(C3CCCC3)c3nc(=O)c5c(Br)cccc5n43)CC2)NC(=O)[C@@H]2C[C@@H](O)CN2C(=O)[C@@H](NC(=O)C2(N(C)C)CC2)C(C)(C)C)cc1	Satisfied
